# reported self-cleavage; entries follow
B1: HDV Ribozyme (parent)
chain: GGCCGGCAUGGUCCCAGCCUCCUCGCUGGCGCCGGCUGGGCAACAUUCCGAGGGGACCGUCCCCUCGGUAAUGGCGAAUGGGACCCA

variants of: B1; test: self-cleavage, relative activity (ratio to wild type); higher = more cleavage; co-transcriptional
measured-property: self-cleavage

# sequence-variant, measured-property, assay-value
measured = [
    ("A70U U79G", "self-cleavage", 0.617),
    ("A16U C44A", "self-cleavage", 0.598),
    ("C62G A71G", "self-cleavage", 0.346),
    ("C13A C26G", "self-cleavage", 0.657),
    ("C3G C75U", "self-cleavage", 0.0863),
    ("G25C U37C", "self-cleavage", 0.0554),
    ("G6U G52A", "self-cleavage", 0.739),
    ("G11A C36G", "self-cleavage", 0.151),
    ("G5A G55U", "self-cleavage", 0.122),
    ("C14A C30A", "self-cleavage", 0.104),
    ("C49A C64G", "self-cleavage", 0.356),
    ("G1C G53A", "self-cleavage", 0.193),
    ("G50A C57G", "self-cleavage", 0.886),
    ("G35A A51G", "self-cleavage", 0.673),
    ("C26A G80C", "self-cleavage", 0.348),
    ("A70U A87C", "self-cleavage", 0.98),
    ("A43G G76C", "self-cleavage", 0.58),
    ("C21U C30A", "self-cleavage", 0.153),
    ("G25C G68U", "self-cleavage", 0.161),
    ("C75A A87C", "self-cleavage", 0.202),
    ("C15A U69G", "self-cleavage", 0.492),
    ("C21G G80A", "self-cleavage", 0.0196),
    ("C49A A71C", "self-cleavage", 0.643),
    ("C7A C84G", "self-cleavage", 0.128),
    ("G2A G5A", "self-cleavage", 0.0343),
    ("U65G G80C", "self-cleavage", 0.185),
    ("G52A U79G", "self-cleavage", 0.718),
    ("G1A C18U", "self-cleavage", 0.0475),
    ("U37G G67A", "self-cleavage", 0.0692),
    ("A16C G59C", "self-cleavage", 0.974),
    ("U23A G39C", "self-cleavage", 0.204),
    ("C44G G82U", "self-cleavage", 0.232),
    ("G1A C86G", "self-cleavage", 0.185),
    ("G2C G40C", "self-cleavage", 0.122),
    ("A70G G82U", "self-cleavage", 0.415),
    ("U47G C75A", "self-cleavage", 0.107),
    ("U47C C86U", "self-cleavage", 0.712),
    ("C26G C62A", "self-cleavage", 0.985),
    ("G28C C57U", "self-cleavage", 0.0277),
    ("G29U G34C", "self-cleavage", 0.146),
    ("G11A A42G", "self-cleavage", 0.0692),
    ("G6A G68A", "self-cleavage", 0.704),
    ("C21G G52A", "self-cleavage", 0.0287),
    ("C30A A70U", "self-cleavage", 0.62),
    ("C49A G80A", "self-cleavage", 0.479),
    ("C22A A71C", "self-cleavage", 0.0405),
    ("C19A G38C", "self-cleavage", 0.0248),
    ("U46G G67U", "self-cleavage", 0.302),
    ("U12A U69G", "self-cleavage", 0.795),
    ("G68U G74A", "self-cleavage", 0.328),
    ("U69A G81U", "self-cleavage", 0.332),
    ("C13U G82A", "self-cleavage", 0.997),
    ("G5C", "self-cleavage", 0.213),
    ("C15A A16C", "self-cleavage", 0.415),
    ("C66G G73C", "self-cleavage", 0.46),
    ("U60G C62U", "self-cleavage", 1.05),
    ("G6A", "self-cleavage", 0.726),
    ("U20C C30A", "self-cleavage", 0.0923),
    ("G6C A56C", "self-cleavage", 0.401),
    ("C14U C15G", "self-cleavage", 0.415),
    ("C14G U65A", "self-cleavage", 0.65),
    ("C64A A87U", "self-cleavage", 0.71),
    ("C57A G76A", "self-cleavage", 1.18),
    ("A42C C85G", "self-cleavage", 0.469),
    ("A51U U60G", "self-cleavage", 1.04),
    ("A43C G54U", "self-cleavage", 0.374),
    ("A51U G55A", "self-cleavage", 1.17),
    ("A42U C64G", "self-cleavage", 0.574),
    ("U37A U65A", "self-cleavage", 0.122),
    ("A71U U72A", "self-cleavage", 0.969),
    ("C33U U69A", "self-cleavage", 0.898),
    ("C21G G73U", "self-cleavage", 0.026),
    ("C14U C26U", "self-cleavage", 1.07),
    ("C64G U72A", "self-cleavage", 0.614),
    ("C24U A51C", "self-cleavage", 0.767),
    ("C22A U37C", "self-cleavage", 0.0723),
]
